All figures here come from patent US7868135B2.

# System: Staphylococcus aureus (MSSA)
# Particulars: 24 h
Starred links: 1 amine or outer side, 2 acyl side, 3 side chain; linkers in the order of their positions; H or OH if unused. Positions of bridges follow the written chain, without caps; N, C: chain ends. Non-standard residues stand in square brackets, D forms with d. Residues, ends and D or L forms follow the SMILES beside them. ξ: configuration not given here. *: point of attachment. Adamantane1carbonyl = O=C(C12CC3CC(CC(C3)C1)C2)*; ξAbu(βξ-NH2) = CC(N[*:3])C(N[*:1])C(=O)[*:2]; ξAsp(βξ-Me) = CC(C(=O)O)C(N)C(=O)O; ξAbu(3ξ-NH2) = CC(N)C(N)C(=O)O; Undecanoyl = CCCCCCCCCCC(=O)*; Pip = O=C(O)[CH]1CCCCN1; ξD = NC(CC(=O)O)C(=O)O; ξPip = O=C(O)C1CCCCN1; ξV = CC(C)C(N)C(=O)O; ξP = O=C(O)C1CCCN1
Reported Property: MIC

• CCCCCCCCCCCCCCC(=O)NC(CC(=O)O)C(=O)NC1C(=O)N2CCCCC2C(=O)NC(C(C)C(=O)O)C(=O)NC(CC(=O)O)C(=O)NCC(=O)NC(CC(=O)O)C(=O)NCC(=O)NC(C(C)NC(=O)CCCCCCCCCCC)C(=O)NC(C(C)C)C(=O)N2CCCC2C(=O)NC1C (stereo not drawn) = >64 µg/mL
• CCCCCCCCCCC(=O)N[C@@H](CC(=O)OC)C(=O)NC(CC(=O)O)C(=O)NC1C(=O)N2CCCCC2C(=O)NC(C(C)C(=O)O)C(=O)NC(CC(=O)O)C(=O)NCC(=O)NC(CC(=O)O)C(=O)NCC(=O)NC(C(C)N)C(=O)NC(C(C)C)C(=O)N2CCCC2C(=O)NC1C (stereo partly drawn) [Compound 316, C11-(Asp-(OMe))-Amphomycin] (Undecanoyl-D(OMe)[ξD][ξAbu(βξ-NH2)][ξPip][ξAsp(βξ-Me)][ξD]G[ξD]G[ξAbu(3ξ-NH2)][ξV][ξP]; lactam 3-C) = >64 µg/mL
• CCCCCCCCCCCCOc1cccc2ccc(C(=O)NC(CC(=O)O)C(=O)NC3C(=O)N4CCCCC4C(=O)NC(C(C)C(=O)O)C(=O)NC(CC(=O)O)C(=O)NCC(=O)NC(CC(=O)O)C(=O)NCC(=O)NC(C(C)N)C(=O)NC(C(C)C)C(=O)N4CCCC4C(=O)NC3C)nc12 (stereo not drawn) = 0.5 µg/mL
• CCCCCCCCCCCCCCC(=O)NC(CC(=O)O)C(=O)NC1C(=O)N2CCCCC2C(=O)NC(C(C)C(=O)O)C(=O)NC(CC(=O)O)C(=O)NCC(=O)NC(CC(=O)O)C(=O)NCC(=O)NC(C(C)NC(=O)[C@@H](N)Cc2ccc(O)cc2)C(=O)NC(C(C)C)C(=O)N2CCCC2C(=O)NC1C (stereo partly drawn) = 32 to 64 µg/mL
• CCCCCCCCNC(=O)NCCC(=O)NC(CC(=O)O)C(=O)NC1C(=O)N2CCCCC2C(=O)NC(C(C)C(=O)O)C(=O)NC(CC(=O)O)C(=O)NCC(=O)NC(CC(=O)O)C(=O)NCC(=O)NC(C(C)N)C(=O)NC(C(C)C)C(=O)N2CCCC2C(=O)NC1C (stereo not drawn) = >64 µg/mL
• CC(C)C1NC(=O)C(C(C)N)NC(=O)CNC(=O)C(CC(=O)O)NC(=O)CNC(=O)C(CC(=O)O)NC(=O)C(C(C)C(=O)O)NC(=O)C2CCCCN2C(=O)C(NC(=O)C(CC(=O)O)NC(=O)C23CC4CC(CC(C4)C2)C3)C(C)NC(=O)C2CCCN2C1=O (stereo not drawn) [Compound 336] (Adamantane1carbonyl-D[ξAbu(βξ-NH2)][Pip][ξAsp(βξ-Me)]DGDG[ξAbu(3ξ-NH2)]VP; lactam 2-C; configuration not given here) = >64 µg/mL

====

# System: Staphylococcus aureus (MSSA)
# Particulars: 24 h
Starred links: 1 amine or outer side, 2 acyl side, 3 side chain; linkers in the order of their positions; H or OH if unused. Positions of bridges follow the written chain, without caps; N, C: chain ends. Non-standard residues stand in square brackets, D forms with d. Residues, ends and D or L forms follow the SMILES beside them. ξ: configuration not given here. *: point of attachment. X29 = COCCOCCOCC(=O)NC(C)C(N[*:1])C(=O)[*:2]; ξAbu(βξ-NH2) = CC(N[*:3])C(N[*:1])C(=O)[*:2]; Lys(Me3) = C[N+](C)(C)CCCC[C@H](N)C(=O)O; Pentadecanoyl = CCCCCCCCCCCCCCC(=O)*; ξAsp(βξ-Me) = CC(C(=O)O)C(N)C(=O)O; Pip = O=C(O)[CH]1CCCCN1; ξD = NC(CC(=O)O)C(=O)O; ξPip = O=C(O)C1CCCCN1; ξV = CC(C)C(N)C(=O)O; ξP = O=C(O)C1CCCN1
Measured MIC by item
Reported Property: MIC (µg/mL)

- CCCCCCCCCCCCCCC(=O)NC(CC(=O)O)C(=O)NC1C(=O)N2CCCCC2C(=O)NC(C(C)C(=O)O)C(=O)NC(CC(=O)O)C(=O)NCC(=O)NC(CC(=O)O)C(=O)NCC(=O)NC(C(C)NC(=O)COCCOCCOC)C(=O)NC(C(C)C)C(=O)N2CCCC2C(=O)NC1C (stereo not drawn) [Compound 343] (Pentadecanoyl-D[ξAbu(βξ-NH2)][Pip][ξAsp(βξ-Me)]DGDG[X29]VP; lactam 2-C; configuration not given here): 64
- CCCCCCCCCCCCCCCC(=O)NC(CC(=O)O)C(=O)NC1C(=O)N2CCCCC2C(=O)NC(C(C)C(=O)O)C(=O)NC(CC(=O)O)C(=O)NCC(=O)NC(CC(=O)O)C(=O)NCC(=O)NC(C(C)N)C(=O)NC(C(C)C)C(=O)N2CCCC2C(=O)NC1C (stereo not drawn): 0.5
- CCCCCCCCCCCCCCC(=O)NC(CC(=O)O)C(=O)NC1C(=O)N2CCCCC2C(=O)NC(C(C)C(=O)O)C(=O)NC(CC(=O)O)C(=O)NCC(=O)NC(CC(=O)O)C(=O)NCC(=O)NC(C(C)NC(=O)[C@@H](N)CCCC[N+](C)(C)C)C(=O)NC(C(C)C)C(=O)N2CCCC2C(=O)NC1C (stereo partly drawn) [Compound 170, C15-Amphomycin-9-(ME)3Lys] (Pentadecanoyl-[ξD][ξAbu(βξ-NH2)][ξPip][ξAsp(βξ-Me)][ξD]G[ξD]G[ξAbu(βξ-NH2)](Lys(Me3))[ξV][ξP]; lactam 2-C): 2
- CCCCCCCCCCCCCCC(=O)NC(CC(=O)O)C(=O)NC1C(=O)N2CCCCC2C(=O)NC(C(C)C(=O)O)C(=O)NC(CC(=O)O)C(=O)NCC(=O)NC(CC(=O)O)C(=O)NCC(=O)NC(C(C)NC(=O)[C@@H](N)CCCC)C(=O)NC(C(C)C)C(=O)N2CCCC2C(=O)NC1C (stereo partly drawn): 8

====

# Tested on: Staphylococcus aureus (MSSA)
# Particulars: 24 h
Starred links: 1 amine or outer side, 2 acyl side, 3 side chain; linkers in the order of their positions; H or OH if unused. Positions of bridges follow the written chain, without caps; N, C: chain ends. Non-standard residues stand in square brackets, D forms with d. Residues, ends and D or L forms follow the SMILES beside them. ξ: configuration not given here. *: point of attachment. ξAbu(βξ-NH2) = CC(N[*:3])C(N[*:1])C(=O)[*:2]; ξAsp(βξ-Me) = CC(C(=O)O)C(N)C(=O)O; ξAbu(3ξ-NH2) = CC(N)C(N)C(=O)O; NH(CH2)11CH3 = CCCCCCCCCCCCN*; Lauroyl = CCCCCCCCCCCC(=O)*; Pip = O=C(O)[CH]1CCCCN1; CO = O=C([*:1])[*:2]
Measured MIC by item
Reported Property: MIC

• CCCCCCCCCCCC(=O)NCC(=O)NC(CC(=O)O)C(=O)NC1C(=O)N2CCCCC2C(=O)NC(C(C)C(=O)O)C(=O)NC(CC(=O)O)C(=O)NCC(=O)NC(CC(=O)O)C(=O)NCC(=O)NC(C(C)N)C(=O)NC(C(C)C)C(=O)N2CCCC2C(=O)NC1C (stereo not drawn) [Compound 103, C12-Gly-Amphomycin] (Lauroyl-GD[ξAbu(βξ-NH2)][Pip][ξAsp(βξ-Me)]DGDG[ξAbu(3ξ-NH2)]VP; lactam 3-C; configuration not given here) = 8 to 16 µg/mL
• CCCCCCCCCCCCNC(=O)NCC(=O)NC(CC(=O)O)C(=O)NC1C(=O)N2CCCCC2C(=O)NC(C(C)C(=O)O)C(=O)NC(CC(=O)O)C(=O)NCC(=O)NC(CC(=O)O)C(=O)NCC(=O)NC(C(C)N)C(=O)NC(C(C)C)C(=O)N2CCCC2C(=O)NC1C (stereo not drawn) [Compound 254, CH3—(CH2)11—NH—C(═O)-Gly-Amphomycin] ({NH(CH2)11CH3-CO}-GD[ξAbu(βξ-NH2)][Pip][ξAsp(βξ-Me)]DGDG[ξAbu(3ξ-NH2)]VP; lactam 3-C; configuration not given here) = 2 to 4 µg/mL
• CCCCCCCCCCCCC(=O)Nc1ccc(C(=O)NC(CC(=O)O)C(=O)NC2C(=O)N3CCCCC3C(=O)NC(C(C)C(=O)O)C(=O)NC(CC(=O)O)C(=O)NCC(=O)NC(CC(=O)O)C(=O)NCC(=O)NC(C(C)N)C(=O)NC(C(C)C)C(=O)N3CCCC3C(=O)NC2C)cc1 (stereo not drawn) [Compound 285, C13-PABA-Amphomycin] = 0.25 µg/mL
